Listing: mass density of selected compounds
# applied.conditions: 298.15 K; 101.33 kPa; Liquid; Pycnometric method
Please reply with the bare figure in kg/m3 and do not write the unit itself.

Completed entries (count: 6):
[
  {
    "compound": "CCC(C)O (configuration not stated) [butan-2-ol]",
    "mass density / kg/m3": 802.57
  },
  {
    "compound": "CC(C)O [propan-2-ol]",
    "mass density / kg/m3": 781.32
  },
  {
    "compound": "CCCCO [butan-1-ol]",
    "mass density / kg/m3": 805.76
  },
  {
    "compound": "C=COCCC [propyl vinyl ether]",
    "mass density / kg/m3": 762.96
  },
  {
    "compound": "CC(C)CC(C)(C)C [2,2,4-trimethylpentane]",
    "mass density / kg/m3": 687.91
  },
  {
    "compound": "CCO [ethanol]",
    "mass density / kg/m3": 785.32
  }
]

The measured mass density associated with CCCO [propan-1-ol] reads 799.94
